Sourced from patent US20220380463A1

Target: T1, human CD3 on CD3+ Jurkat cells (human, UniProt P07766 23-207)
T1 construct: whole, on cells; Native CD3 complex on cells; the other CD3 chains are not specified for this assay; also called Human CD3+ Jurkat
T1 sequence (P07766 23-207): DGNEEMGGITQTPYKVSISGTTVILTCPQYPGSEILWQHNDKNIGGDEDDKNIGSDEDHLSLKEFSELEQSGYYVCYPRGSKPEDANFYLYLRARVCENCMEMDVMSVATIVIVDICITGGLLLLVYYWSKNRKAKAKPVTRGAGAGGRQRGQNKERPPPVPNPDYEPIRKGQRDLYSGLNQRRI
Test: flow cytometry on CD3+ Jurkat cells, ratio of MFI at pH 6.0 to pH 7.4
Protocol: Specificity of the anti-CD3 antibodies for human CD3+ Jurkat cells compared to CHO-S cells at pH 6.0 and 7.4 was determined using a FACS cell binding assay. Briefly, CD3+ human Jurkat cells and CHO-S cells were thawed and washed with cold PBSF buffer, pH 7.4 (PBS+0.1% BSA, pH 7.4). About 200,000 cells were aliquoted per well of a 96-well plate and pelleted by centrifugation (5 minutes at 500×g). […] Binding was analyzed on FACS Canto II. Cell binding assays. […] Binding was analyzed on FACS Canto II.
// reported MFI pH 6.0/MFI pH 7.4 for each item listed
Field format: numeric only.

As a guide, the following entries are already answered.
binder="SAD10318_P01_A03 (ADI-48587) (antibody, V domains shown, IgG; also called Ab36) VH: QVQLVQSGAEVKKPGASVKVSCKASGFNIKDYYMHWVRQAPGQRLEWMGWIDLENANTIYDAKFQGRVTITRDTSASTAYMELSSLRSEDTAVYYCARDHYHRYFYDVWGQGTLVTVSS VL: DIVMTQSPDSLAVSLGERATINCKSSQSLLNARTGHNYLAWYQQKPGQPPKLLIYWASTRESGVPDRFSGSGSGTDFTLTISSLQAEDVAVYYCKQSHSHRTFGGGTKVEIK" measured_property="MFI pH 6.0/MFI pH 7.4" data_value=77.1
binder="SAD10320_P02_E04 (ADI-48649) (antibody, V domains shown, IgG; also called Ab72) VH: QVQLVQSGAEVKKPGASVKVSCKASGFNIKDYYMHWVRQAPGQRLEWMGWIDLENANTIYDAKFQGRVTITRDTSASTAYMELSSLRSEDTAVYYCARDAYHEYFYDVWGQGTLVTVSS VL: DIVMTQSPDSLAVSLGERATINCKSSQSLLNARTGKNYLAWYQQKPGQPPKLLIYWASTRESGVPDRFSGSGSGTDFTLTISSLQAEDVAVYYCKQSHVRRTFGGGTKVEIK" measured_property="MFI pH 6.0/MFI pH 7.4" data_value=3.6
binder="SAD10318_P03_A09 (ADI-48608) (antibody, V domains shown, IgG; also called Ab203) VH: QVQLVQSGAEVKKPGASVKVSCKASGFNIKDYYMHWVRQAPGQRLEWMGWIDLENANTIYDAKFQGRVTITRDTSASTAYMELSSLRSEDTAVYYCARDHYGRYFYDHWGQGTLVTVSS VL: DIVMTQSPDSLAVSLGERATINCKSSQSLLNARTGHNHLAWYQQKPGQPPKLLIYWASTRESGVPDRFSGSGSGTDFTLTISSLQAEDVAVYYCKQSYHHRTFGGGTKVEIK" measured_property="MFI pH 6.0/MFI pH 7.4" data_value=4.5
binder="SAD10319_P03_E09 (ADI-48640) (antibody, V domains shown, IgG; also called Ab26) VH: QVQLVQSGAEVKKPGASVKVSCKASGYTFLSYDMHWVRQAPGQRLEWMGWIDAGTGATTYSQKFQGRVTITRDTSASTAYMELSSLRSEDTAVYYCARDAYHHYFYDVWGQGTLVTVSS VL: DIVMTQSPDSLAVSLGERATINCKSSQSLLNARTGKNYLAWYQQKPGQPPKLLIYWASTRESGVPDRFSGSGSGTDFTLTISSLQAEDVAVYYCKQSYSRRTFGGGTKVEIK" measured_property="MFI pH 6.0/MFI pH 7.4" data_value=13.8
binder="SAD10318_P03_D09 (ADI-48610) (antibody, V domains shown, IgG; also called Ab206) VH: QVQLVQSGAEVKKPGASVKVSCKASGFNIKDYHMHWVRQAPGQRLEWMGWIDLENANTIYDAKFQGRVTITRDTSASTAYMELSSLRSEDTAVYYCARDAHHRYFYDVWGQGTLVTVSS VL: DIVMTQSPDSLAVSLGERATINCKSSQSLLNAHTGKNHLAWYQQKPGQPPKLLIYWASTRESGVPDRFSGSGSGTDFTLTISSLQAEDVAVYYCKQSHSHRTFGGGTKVEIK" measured_property="MFI pH 6.0/MFI pH 7.4" data_value=5
binder="SAD10318_P01_B01 (ADI-48574) (antibody, V domains shown, IgG; also called Ab2) VH: QVQLVQSGAEVKKPGASVKVSCKASGFNIKDYYMHWVRQAPGQRLEWMGWIDLENANTIYDAKFQGRVTITRDTSASTAYMELSSLRSEDTAVYYCARDAYGRYHYDHWGQGTLVTVSS VL: DIVMTQSPDSLAVSLGERATINCKSSQSLLNAHTGHNYLAWYQQKPGQPPKLLIYWASTRESGVPDRFSGSGSGTDFTLTISSLQAEDVAVYYCKQSYSRRTFGGGTKVEIK" measured_property="MFI pH 6.0/MFI pH 7.4" data_value=23.7

What the record says about SAD10318_P03_E07 (ADI-48601) (antibody, V domains shown, IgG; also called Ab191) VH: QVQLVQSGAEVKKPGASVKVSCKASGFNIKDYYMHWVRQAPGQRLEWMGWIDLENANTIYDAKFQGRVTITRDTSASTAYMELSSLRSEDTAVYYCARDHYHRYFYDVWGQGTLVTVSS VL: DIVMTQSPDSLAVSLGERATINCKSSQSLLNAHTGKNYLAWYQQKPGQPPKLLIYWASTRESGVPDRFSGSGSGTDFTLTISSLQAEDVAVYYCHQSHSRRTFGGGTKVEIK : MFI pH 6.0/MFI pH 7.4 is 20.7
